Data origin: ChEMBL document CHEMBL2069286

# assay-remarks: Total clearance in mouse at 1 mg/kg, iv
# Type: ADME, organism-based
# Parameters: dose 1 mg/kg, route intravenous
# test-settings: in vivo
result-type: clearance (mL/min/kg)
Supply the numeric figure in mL/min/kg, leaving out any unit text.

Please list clearance recorded for the molecule CCc1cc(NC[C@@H](O)CO)nc(-c2cc(F)c(Cl)cc2F)n1 35.9

----------
# system-under-test: Glucose-dependent insulinotropic receptor (Homo sapiens)
# assay-remarks: Agonist activity at human GPR119 expressed in HEK293 cells assessed as stimulation of cAMP level incubated for 6 hrs by luciferase activity based luminometry
# Assay type: functional, cell-based
result-type: log10(EC) (log10 of the value in µM)
Recorded EC (log10, µM)

CCc1cc(NCCc2cc[nH]c(=O)c2)nc(-c2cc(F)c(Cl)cc2F)n1; -1.89
CCc1cc(NC[C@@H](O)CO)nc(-c2cc(F)c(Br)cc2F)n1; -0.66
CCc1cc(NC[C@@H](O)CO)nc(-c2cc(F)c(Cl)cc2F)n1; -0.55
CCc1cc(NC[C@H](O)CO)nc(-c2ccc(Br)c(F)c2)n1; -0.23
Cc1cc(NCCc2cc[nH]c(=O)c2)nc(-c2cc(F)c(Cl)cc2F)n1; -2.16
CCc1cc(NC[C@@H](O)CO)nc(-c2ccc(Cl)c(F)c2)n1; -0.41
Cc1cc(NCCc2ccc[n+]([O-])c2)nc(-c2ccc(Br)cc2)n1; 0.08
Cc1cc(NCCc2ccc[n+]([O-])c2)nc(-c2cc(F)c(Br)cc2F)n1; -0.96

Answer with the recorded log10(EC) of Cc1cc(NCCc2cc[nH]c(=O)c2)nc(-c2cc(F)c(Br)cc2F)n1 only. -1.77

Read the entry CCc1cc(NC[C@@H](O)CO)nc(-c2ccc(Br)c(F)c2)n1 and write its reported log10(EC). -0.72

----------
# assay-remarks: Oral bioavailability in monkey at 3 mg/kg
# Assay type: ADME, organism-based, Macaca mulatta
# test-settings: rhesus monkey, in vivo
result-type: bioavailability (%)
Answer with a number only, understood to be in %.

Report measured bioavailability; entry is CCc1cc(NC[C@@H](O)CO)nc(-c2cc(F)c(Cl)cc2F)n1 51

----------
# assay-remarks: Tmax in mouse at 3 mg/kg, po
# Assay type: ADME, organism-based
# Design: dose 3 mg/kg, route oral
# test-settings: in vivo
result-type: Tmax (min)
Supply the numeric figure in min, leaving out any unit text.

Provide Tmax value for the following molecule: CCc1cc(NC[C@@H](O)CO)nc(-c2cc(F)c(Cl)cc2F)n1 6

----------
# system-under-test: Glucose-dependent insulinotropic receptor (Homo sapiens)
# assay-remarks: Intrinsic activity at human GPR119 expressed in HEK293 cells assessed as stimulation of cAMP level at 10 uM incubated for 6 hrs by luciferase activity based luminometry relative to 10 uM 2-(2-(4-bromophenyl)-6-methylpyrimidin-4-ylamino)ethanol
# Assay type: functional, cell-based
Kindly note that classification relies on Intrinsic activity with these boundaries: c1 = under 300%, c2 = from 300% up to 400%, c3 = 400% and over

Please review the entries below; each comes with its answer.
Cc1cc(NCCc2ccc[n+]([O-])c2)nc(-c2ccc(Br)cc2F)n1; c1
CCc1cc(NC[C@@H](O)CO)nc(-c2cc(F)c(Cl)cc2F)n1; c3

Which class is correct for the following compound? Cc1cc(NC[C@H](O)CO)nc(-c2ccc(Br)c(F)c2)n1 c1

Each compound maps to one class by Intrinsic activity. Which class for Cc1cc(NCCc2ccc[n+]([O-])c2)nc(-c2ccc(Cl)c(Cl)c2)n1 ? c3

Textbook exercise: identify the category of the compound given here, Cc1cc(NC[C@@H](O)CO)nc(-c2ccc(Br)c(F)c2)n1 , according to its measured value. c2

Assign a category based on measured Intrinsic activity for Cc1cc(NCCc2ccc[n+]([O-])c2)nc(-c2ccc(Br)cc2)n1 and give only the class name. c2

Please let me know in which category the item Cc1cc(NCCc2cc[nH]c(=O)c2)nc(-c2cc(F)c(Cl)cc2F)n1 belongs. c3

Consider Cc1cc(NCCc2ccc[n+]([O-])c2)nc(-c2ccc(Cl)c(F)c2)n1 . To which Intrinsic activity class does it belong? c3

Band assignment needed for CCc1cc(NC[C@@H](O)CO)nc(-c2ccc(Cl)c(F)c2)n1 please. c1

Class? Entry: Cc1cc(NCCc2cc[nH]c(=O)c2)nc(-c2cc(F)c(Br)cc2F)n1 c3

----------
# assay-remarks: Total clearance in monkey at 1 mg/kg, iv
# Format: ADME, organism-based, Macaca mulatta
# Set-up: dose 1 mg/kg, route intravenous
# test-settings: rhesus monkey, in vivo
result-type: clearance (mL/min/kg)
Output spec: scalar in mL/min/kg, unitless text.

State its clearance: CCc1cc(NC[C@@H](O)CO)nc(-c2cc(F)c(Cl)cc2F)n1 12

----------
# system-under-test: Glucose-dependent insulinotropic receptor (Homo sapiens)
# assay-remarks: Agonist activity at human GPR119 expressed in HEK293 cells assessed as stimulation of cAMP level incubated for 6 hrs by luciferase activity based luminometry
# Format: functional, cell-based
Label scheme for EC: low bin (below 0.3 µM), mid bin (0.3 µM to below 0.7 µM), high bin (0.7 µM or more)

Worked cases, answers included:
Cc1cc(NCCc2ccc[n+]([O-])c2)nc(-c2cc(F)c(Cl)cc2F)n1; low bin
Cc1cc(NCCc2ccc[n+]([O-])c2)nc(-c2ccc(Br)c(F)c2)n1; low bin
Cc1cc(NC[C@@H](O)CO)nc(-c2ccc(Br)c(F)c2)n1; high bin

Band for the recorded EC of Cc1cc(NC[C@H](O)CO)nc(-c2ccc(Br)c(F)c2)n1 ? high bin

Which band does Cc1cc(NCCc2ccc[n+]([O-])c2)nc(-c2cc(F)c(Br)c(F)c2)n1 fall in? mid bin

Lab note: sort Cc1cc(NCCc2ccc[n+]([O-])c2)nc(-c2ccc(Br)cc2F)n1 into the matching EC band. high bin

Please indicate the class for Cc1cc(NCCc2cc[nH]c(=O)c2)nc(-c2ccc(Br)c(F)c2)n1 based on its EC. low bin

Exercise: read the entry Cc1cc(NCCc2ccc[n+]([O-])c2)nc(-c2ccc(Cl)c(F)c2)n1 and state which class it falls under. mid bin

----------
# assay-remarks: Half life in monkey at 1 mg/kg, iv
# Format: ADME, organism-based, Macaca mulatta
# Parameters: dose 1 mg/kg, route intravenous
# test-settings: rhesus monkey, in vivo
result-type: half-life (h)
Form entry: value (h) — number only.

Give reported half-life value for CCc1cc(NC[C@@H](O)CO)nc(-c2cc(F)c(Cl)cc2F)n1 4.6

----------
# system-under-test: Cytochrome P450 1A2 (Homo sapiens, UniProt P05177)
# Sequence (P05177 whole entry): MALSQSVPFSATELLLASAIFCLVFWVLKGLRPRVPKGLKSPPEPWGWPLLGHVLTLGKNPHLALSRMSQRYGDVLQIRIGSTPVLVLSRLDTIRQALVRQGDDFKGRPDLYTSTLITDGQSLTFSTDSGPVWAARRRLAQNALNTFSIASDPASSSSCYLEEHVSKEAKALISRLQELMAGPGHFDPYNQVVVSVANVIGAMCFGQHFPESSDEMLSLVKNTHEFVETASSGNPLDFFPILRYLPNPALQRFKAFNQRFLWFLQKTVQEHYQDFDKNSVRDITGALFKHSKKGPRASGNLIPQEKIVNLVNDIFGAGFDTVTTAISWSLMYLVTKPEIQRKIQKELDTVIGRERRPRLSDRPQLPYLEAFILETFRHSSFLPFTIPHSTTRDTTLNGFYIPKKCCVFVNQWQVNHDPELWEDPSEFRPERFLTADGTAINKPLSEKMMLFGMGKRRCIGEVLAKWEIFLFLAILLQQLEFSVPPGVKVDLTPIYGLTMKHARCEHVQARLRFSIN
Collected IC50 values appear next to each entry.
Give your result in µM as a bare value.

Worked cases, answers included:
Cc1cc(NCCc2ccc[n+]([O-])c2)nc(-c2cc(F)c(Br)cc2F)n1; 7.2
CCc1cc(NC[C@@H](O)CO)nc(-c2ccc(Br)c(F)c2)n1; 1.5
Cc1cc(NC[C@@H](O)CO)nc(-c2ccc(Br)c(F)c2)n1; 1.7

Quick one: give measured IC50 for CCc1cc(NC[C@@H](O)CO)nc(-c2cc(F)c(Cl)cc2F)n1 35

----------
# assay-remarks: Half life in mouse at 1 mg/kg, iv
# Type: ADME, organism-based
# Design: dose 1 mg/kg, route intravenous
# test-settings: in vivo
result-type: half-life (h)
Your answer is read as h, so omit the unit and give the number.

Indicate the recorded half-life value for this molecule: CCc1cc(NC[C@@H](O)CO)nc(-c2cc(F)c(Cl)cc2F)n1 2.2

----------
# assay-remarks: Stability in human liver microsomes
# Type: ADME, Microsome
# test-settings: read-out: Stability
CLint scaled values by entry
Kindly provide the numeric value in mL/min/kg only, without the unit symbol.

Please report CLint scaled for the following compound: CCc1cc(NC[C@@H](O)CO)nc(-c2ccc(Cl)c(F)c2)n1 236

Indicate its recorded CLint scaled; the compound in question is CCc1cc(NC[C@@H](O)CO)nc(-c2ccc(Br)c(F)c2)n1 168
